- Test Details: in vivo
- Design: species or system mice
- Experimental Context: male, NODSCID 1L2RγKO, mouse, iv, total radioactivity, Liver uptake
Catalogue of tissue uptake at 24 h readings, one per entry.
Write it as a number; the unit %ID/g goes unstated.

O=C(O)CCC[C@H](NC(=O)N[C@@H](CCCCNC(=O)[C@H](Cc1c2ccccc2cc2ccccc12)NC(=O)[C@H]1CC[C@H](CNC(=O)CN2CCN(CC(=O)O)CCN(CC(=O)O)CCN(CC(=O)O)CC2)CC1)C(=O)O)C(=O)O [177Lu-HTK03149, metal not drawn]; 0.1

Okay, next one:
// query State its tissue uptake at 24 h for this molecule: COc1ccc(CCCC(=O)NCC(=O)N[C@@H](CCCCNC(=O)CN2CCN(CC(=O)O)CCN(CC(=O)O)CCN(CC(=O)O)CC2)C(=O)NC[C@H]2CC[C@H](C(=O)N[C@@H](Cc3c4ccccc4cc4ccccc34)C(=O)NCCCC[C@H](NC(=O)N[C@@H](COCC(=O)O)C(=O)O)C(=O)O)CC2)cc1 [177Lu-HTK04028, metal not drawn]
// result 0.54

The reported measurements were obtained from patent US11504441B2.
